Source of measurements: patent US20180305451A1

target_or_system: T1, human HIDE1-flag (human, UniProt A8MVS5 20-230)
T1 construct: Over-expressed on HEK293, SK-MEL-5, CHO-S and CHO-S OKT3 cells (pMSCV or pcDNA3.1); whole cell extracts in WB; Entry includes the signal peptide; also called hHIDE1 Flag
T1 sequence: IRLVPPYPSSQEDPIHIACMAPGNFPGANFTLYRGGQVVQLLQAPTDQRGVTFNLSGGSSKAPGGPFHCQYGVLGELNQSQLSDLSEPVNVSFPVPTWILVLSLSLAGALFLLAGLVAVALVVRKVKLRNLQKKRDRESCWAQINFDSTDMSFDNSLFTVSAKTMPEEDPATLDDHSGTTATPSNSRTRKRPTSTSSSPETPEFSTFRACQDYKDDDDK
protocol_details: FACS, Geo mean ratio of HEK293 cells over-expressing human HIDE1 Flag to HEK293 empty vector, antibody 10 ug/ml
assay_metric: rMFI OX/EV, 10ug/ml, hHIDE1
Lab note: jot the number down without any unit.

Below are worked cases with known answers.
αhHIDE1_AbD25760_hIgG1_Ser_mAb (antibody, V domains shown, also called AB-510; Ab-510) VH: QVQLVQSGAEVKKPGSSVKVSCKASGGTFSDYAINWVRQAPGQGLEWMGGIIPNFGTANYAQKFQGRVTITADESTSTAYMELSSLRSEDTAVYYCARGMRSLGGLSYYFDLWGQGTLVTVSS VL: DIQMTQSPSSLSASVGDRVTITCRASQSINSYLNWYQQKPGKAPKLLIYAASSLQSGVPSRFSGSGSGTDFTLTISSLQPEDFATYYCQQYIHYPITFGQGTKVEIK
117
αhHIDE1_AbD25755_hIgG1_Ser_mAb (antibody, V domains shown) VH: QVQLVQSGAEVKKPGSSVKVSCKASGGTFSSYAISWVRQAPGQGLEWMGGIVPKFGTAYYAQKFQGRVTITADESTSTAYMELSSLRSEDTAVYYCARENLVYSAIAIWGQGTLVTVSS VL: DIQMTQSPSSLSASVGDRVTITCRASQDISNWLNWYQQKPGKAPKLLIYGASSLQSGVPSRFSGSGSGTDFTLTISSLQPEDFATYYCQQVTSTPFTFGQGTKVEIK
236
αhHIDE1_AbD25753_hIgG1_Ser_mAb (antibody, V domains shown) VH: EVQLVQSGAEVKKPGESLKISCKGSGYSFTNYWIHWVRQMPGKGLEWMGIIDPGNSFTRYSPSFQGQVTISADKSISTAYLQWSSLKASDTAMYYCARGDGLYGGSDGYSMGGFDNWGQGTLVTVSS VL: DIQMTQSPSSLSASVGDRVTITCRASQTIWNYLAWYQQKPGKAPKLLIYDASNLQSGVPSRFSGSGSGTDFTLTISSLQPEDFATYYCQQYSHFPHTFGQGTKVEIK
276

Ask: What value of rMFI OX/EV, 10ug/ml, hHIDE1 has been reported for the following binder? αhHIDE1_AbD25754_hIgG1_Ser_mAb (antibody, V domains shown) VH: QVQLVQSGAEVKKPGASVKVSCKASGYTFSGYGMHWVRQAPGQGLEWMGIISPSNGNTNYAQKFQGRVTMTRDTSISTAYMELSRLRSEDTAVYYCAREVYYGLDVWGQGTLVTVSS VL: DIQMTQSPSSLSASVGDRVTITCRASQSISSWLNWYQQKPGKAPQLLIYGASSLQSGVPSRFSGSGSGTDFTLTISSLQPEDFATYYCQQYISIPITFGQGTKVEIK
Reply: 270
